methodNotes: yeast display, Sf9 membrane polyspecificity reagent, FACS + sequencing; frameworks hold sequencing errors
quantityKind: polyreactivity (PSR sort gate)

constructsequence=QVQLVESGAGLVQEVGSLRLSCAASGFTFGVNAMGSSRQAPGKERQFVASIRVRGCSTYYADSEKGRFTISRDNAKNTVYLQMNSLKPEDTAVYFCNAEVYVSSYATEMDYWGQGTQVTVSS recordedvalue="low polyreactivity"
constructsequence=QVQLVESGGGLVQAGGSLLLSCAASGRIFRSYAMGWYRQAPGKERELVAAISSGGSTKYADSVKGRFTISRDNAKNTVYLQMNSLKPVDTAVYYCAASRTRLGTSGTSYGAAYDYWGQGTQVTVSS recordedvalue="high polyreactivity"
constructsequence=QVQLVESGGGLVQAGGSLRLSCAASGSIFYGNAMGWYRQAPGKERELVAAIDGTGASTYYADSVKGRFTISRDNAKNTVYLKMNSLKPEDTAVYYCNKALTSKDYPVRTVERDYWGQGTQVTVSS recordedvalue="low polyreactivity"
constructsequence=QVQHVESAGGLVQAGGSLRLSCAASGSTFSDYAMGRYRQAPGKERELVAAISRSGGSTYYADSVKGRFTISRDNAKNTVYLQMNSLKPEDTAVYYCAASRATLLRYGYWGQGTQVTVSS recordedvalue="low polyreactivity"
constructsequence=QVQLVESGGGLVQAGGSLRLSCAASGSTFPYYAMGWYRQAPGKERELVARISSGSSTNYADSVKGRFTISRDNAKNTVYLQMNSLKPEDTAVYYCAARYTARRQSYGYWGQGTQVTVSS recordedvalue="high polyreactivity"
